B1: library; a variant is named by its letters at N, in order (parent)
chain: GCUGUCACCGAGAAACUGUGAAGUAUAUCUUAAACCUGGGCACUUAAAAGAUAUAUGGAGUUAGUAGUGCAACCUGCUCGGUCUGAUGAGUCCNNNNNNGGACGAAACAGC

variants of: B1; test: FACS-Seq fitted mean relative fluorescence mCherry/BFP without ligand (log10 relative fluorescence); HEK293T; ligand: cyclic di-GMP (c-di-GMP-II aptamer); higher = higher reporter protein expression; conditions: ligand present: no
# if value of FACS-Seq fitted mean (log10) reaches -0.4, tag MET; if it stays below, tag NOT MET

> print(dat)
                                   residues  category.label
1  GCUGUCACCGAGAAACUGUGAAGUAUAUCUUAAACCUGGGCACUUAAAAGAUAUAUGGAGUUAGUAGUGCAACCUGCUCGGUCUGAUGAGUCCGAUCGAGGACGAAACAGC [GAUCGA]         NOT MET
2  GCUGUCACCGAGAAACUGUGAAGUAUAUCUUAAACCUGGGCACUUAAAAGAUAUAUGGAGUUAGUAGUGCAACCUGCUCGGUCUGAUGAGUCCCAACCUGGACGAAACAGC [CAACCU]             MET
3  GCUGUCACCGAGAAACUGUGAAGUAUAUCUUAAACCUGGGCACUUAAAAGAUAUAUGGAGUUAGUAGUGCAACCUGCUCGGUCUGAUGAGUCCUAAACAGGACGAAACAGC [UAAACA]             MET
4  GCUGUCACCGAGAAACUGUGAAGUAUAUCUUAAACCUGGGCACUUAAAAGAUAUAUGGAGUUAGUAGUGCAACCUGCUCGGUCUGAUGAGUCCUCUGGUGGACGAAACAGC [UCUGGU]             MET
5  GCUGUCACCGAGAAACUGUGAAGUAUAUCUUAAACCUGGGCACUUAAAAGAUAUAUGGAGUUAGUAGUGCAACCUGCUCGGUCUGAUGAGUCCGCUACGGGACGAAACAGC [GCUACG]             MET

Attention now turns to another entry.
*Q* Record GCUGUCACCGAGAAACUGUGAAGUAUAUCUUAAACCUGGGCACUUAAAAGAUAUAUGGAGUUAGUAGUGCAACCUGCUCGGUCUGAUGAGUCCUUCGGAGGACGAAACAGC [UUCGGA] ; criterion: FACS-Seq fitted mean (log10) no lower than -0.4. Met?
*A* MET
